Target: GlcNAc(b1-3)Gal(b1-4)GlcNAc(b1-2)[GlcNAc(b1-3)Gal(b1-4)GlcNAc(b1-6)]Man(a1-6)[GlcNAc(b1-3)Gal(b1-4)GlcNAc(b1-2)Man(a1-3)]Man(b1-4)GlcNAc(b1-4)GlcNAc
Assay: glycan array binding signal (z-score within array); higher = stronger binding
Settings: glycan notation: IUPAC condensed, linker removed
The sample as a whole holds a higher share of the strongest signals than the screen did.
readout_kind: glycan array binding signal (z-score)
Form rule: numeric answer, no unit written next to it.

Enquiry: Could you please provide reported glycan array binding signal (z-score) for EULS2 M3 (Oryza sativa) (protein) MVYCRANPNYAMTARNGAVVLAPANPKDEYQHWIKDMRWSTSIKDEEGYPAFALVNKATGQAIKHSLGQSHPVRLVPYNPEVMDESVLWTESRDVGNGFRCIRMVNNIYLNFDAFHGDKYHGGVRDGTDIVLWKLCEGDSLRWKIQPYYILEQKLISEEDLNSAVDHHHHHH ? Thanks!
Return: 0.562

Enquiry: Answer with the recorded glycan array binding signal (z-score) of HPL (Tachypleus tridentatus) (protein) MEDDCTCVTDRSLEGKLMKHPSTPAVYQILDGCRRLVPNPPTYNNIYKNWECIQSNILEKLLCKCDSLSNGAELIKGSGDTVYLLSNGVKRPIADPETFNGFCFDWNKIKTYSDIVINSLSTGPIIIIKHHHHHH only.
Return: 0.395

Enquiry: Query glycan array binding signal (z-score) for AT1G15820(NC) (Arabidopsis thaliana) (protein) MAMAVSGAVLSGLGSSFLTGGKRGATALASGVGDAIAPFSFGSLLGTQLLLMGWVESKRWVDFFNPDSQSVEWATPWSKTAENFANYTGDQGYPGGRFFDPLGLAGKNRDGVYEPDFEKLERLKLAEIKHSRLAMVAMLIFYFEAGQGKTPLGALGL
Return: 0.582

Enquiry: Given the binder MSMEG3662-2a (Mycobacterium smegmatis), A0QYH7_MYCS2 (protein) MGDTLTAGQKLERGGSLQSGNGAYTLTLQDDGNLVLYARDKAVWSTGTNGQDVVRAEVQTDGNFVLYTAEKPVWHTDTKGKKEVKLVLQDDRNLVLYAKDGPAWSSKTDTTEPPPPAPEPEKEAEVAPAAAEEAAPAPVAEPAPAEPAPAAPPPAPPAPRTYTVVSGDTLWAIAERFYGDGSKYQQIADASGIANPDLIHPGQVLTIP , write its reported glycan array binding signal (z-score).
Return: -0.017

Enquiry: Determine its reported glycan array binding signal (z-score): Mincle (Bos taurus) (protein) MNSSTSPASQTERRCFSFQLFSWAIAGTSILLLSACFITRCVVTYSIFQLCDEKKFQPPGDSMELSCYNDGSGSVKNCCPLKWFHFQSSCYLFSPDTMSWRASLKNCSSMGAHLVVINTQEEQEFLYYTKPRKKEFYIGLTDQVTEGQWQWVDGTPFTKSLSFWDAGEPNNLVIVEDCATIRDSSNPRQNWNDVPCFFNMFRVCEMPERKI
Return: 1.42

Enquiry: Find the measured glycan array binding signal (z-score) of Sebin1 (Coprinopsis cinerea), A8PEE3 (protein) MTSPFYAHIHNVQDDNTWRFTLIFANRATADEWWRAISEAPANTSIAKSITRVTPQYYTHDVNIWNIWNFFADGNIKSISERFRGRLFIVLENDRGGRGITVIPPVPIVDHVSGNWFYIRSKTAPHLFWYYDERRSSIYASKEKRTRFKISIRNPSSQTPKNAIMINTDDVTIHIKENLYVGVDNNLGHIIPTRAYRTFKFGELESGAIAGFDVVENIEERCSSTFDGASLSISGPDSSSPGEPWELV and report it.
Return: -0.792
